Data credit: ChEMBL document CHEMBL1799982

Please respond with reported IC50 for every item in the list.
- ASSAY_TARGET: Cyclin-dependent kinase 5/CDK5 activator 1 (Homo sapiens, UniProt Q00535)
- Sequence (Q00535 whole entry): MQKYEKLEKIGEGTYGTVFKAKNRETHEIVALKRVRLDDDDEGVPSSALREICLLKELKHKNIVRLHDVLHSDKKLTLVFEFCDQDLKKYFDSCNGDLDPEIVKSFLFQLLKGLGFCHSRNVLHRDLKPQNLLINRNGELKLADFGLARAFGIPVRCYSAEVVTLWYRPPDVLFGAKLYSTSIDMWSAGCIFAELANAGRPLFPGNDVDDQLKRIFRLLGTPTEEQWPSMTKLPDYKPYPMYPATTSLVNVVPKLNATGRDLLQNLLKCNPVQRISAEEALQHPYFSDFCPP
- Sequence (Q15078 whole entry, further chain): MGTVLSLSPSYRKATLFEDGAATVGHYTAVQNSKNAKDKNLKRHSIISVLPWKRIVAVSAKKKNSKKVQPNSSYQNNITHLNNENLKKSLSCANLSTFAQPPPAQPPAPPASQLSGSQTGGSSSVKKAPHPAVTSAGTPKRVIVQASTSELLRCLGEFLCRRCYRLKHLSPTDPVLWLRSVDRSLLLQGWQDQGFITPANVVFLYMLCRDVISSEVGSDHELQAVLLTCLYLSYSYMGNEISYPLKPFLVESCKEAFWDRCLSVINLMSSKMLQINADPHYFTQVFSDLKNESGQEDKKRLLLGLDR
- ASSAY_COMMENT: Inhibition of human recombinant CDK5/p25 using Histone H1 and [gamma32]-ATP after 30 mins by scintillation counting
Answers are plain numbers, in µM.

Known results for molecules:
COc1cccc(-c2cnc(N)nc2-c2c[nH]c3cccc(Br)c23)c1 : 6
Nc1ncc(I)c(-c2c[nH]c3c(Br)cccc23)n1 : 2.1
Nc1ncc(I)c(-c2c[nH]c3c(N)cccc23)n1 : 0.66
Nc1nccc(-c2c[nH]c3cc(Br)ccc23)n1 : 1.2
CC(=O)Nc1ccc(-c2cnc(N)nc2-c2c[nH]c3ccc(Br)cc23)cc1 : 6.8

I'm hoping you can list IC50 for every molecule here, please.
1. Nc1nccc(-c2c[nH]c3c([N+](=O)[O-])cccc23)n1
2. Nc1ncc(-c2ccc(C(F)(F)F)cc2)c(-c2c[nH]c3cccc(Br)c23)n1
3. CC(=O)Nc1ccc(-c2cnc(N)nc2-c2c[nH]c3c(Br)cccc23)cc1
4. Nc1nccc(-c2c[nH]c3ccccc23)n1
5. Nc1ncc(I)c(-c2c[nH]c3cc(Br)ccc23)n1
6. CC(=O)c1ccc(-c2cnc(N)nc2-c2c[nH]c3cccc(Br)c23)cc1

[out]
[6.3, 4.7, 7.5, 5, 0.68, 7]

I'm hoping you can list IC50 for every molecule here, please.
1. Nc1ccc2c(-c3nc(N)ncc3I)c[nH]c2c1
2. Nc1nccc(-c2c[nH]c3ccc(Br)cc23)n1

[out]
[6.2, 1.2]
